Test: Inhibition of N-terminal hexahistidine-tagged recombinant Mycobacterium tuberculosis PtpB expressed in Escherichia coli BL21(DE3) using p-nitrophenylphosphate as substrate measured for 10 mins by ELISA plate spectrophotometric analysis
Quantity kind: IC50

> print(dat)
                                   compound  result
1  CC12C=CC(O1)[C@@H]1C(=O)N(c3ccc(S(=O)(=O)N/N=C/c4ccc(Br)cc4)cc3)C(=O)[C@@H]12 (some centres undefined)   39 µM

Batch request: IC50 per item, same order as input.
1. CC12C=CC(O1)C1C(=O)N(c3ccc(S(=O)(=O)N/N=C/c4ccc(Cl)cc4)cc3)C(=O)C12 (centres undefined)
2. CC12C=CC(O1)C1C(=O)N(c3ccc(S(=O)(=O)N/N=C/c4ccccc4)cc3)C(=O)C12 (centres undefined)
3. O=C1C2C3C=CC(O3)C2C(=O)N1c1ccc(S(=O)(=O)N/N=C/c2ccc([N+](=O)[O-])cc2)cc1 (centres undefined)

1. 21 µM
2. 18 µM
3. 41 µM

Origin of values: ChEMBL document CHEMBL3217734
